# cytotoxicity at 10 µM per record follows
ASSAY REMARKS: Toxicity liver stage against HepG2, at 10uM
Type: cell-based
Set-up: test concentration 10 uM, cell line HepG2-A16-CD81EGFP
RUN PARAMETERS: human, HepG2-A16-CD81EGFP cells; read-out: INHIBITION
MEASUREMENT LABEL: cytotoxicity at 10 µM

1. COC(=O)c1ccc(N2CCN(C(=O)c3cnc(C)cn3)C(C)C2)cc1 (configuration not stated) :: 3.09%
2. Cc1ccn(-c2ccc(NCc3ccnc(N4CCCCC4)c3)nn2)n1 :: -0.715%
3. COc1ccc2c(CN3CCCN(Cc4ccncc4)CC3)n[nH]c2c1 :: -4.32%
4. CN(C)CCN1CCOCC2(C1)CN(Cc1ccsc1)CCO2 (configuration not stated) :: -0.439%
5. Cc1nn(-c2ccccc2)c2c1c(C(F)F)cc(=O)n2CC(=O)O :: 7.73%
6. CCN(Cc1ccccn1)C1CCN(c2ccccc2)C1=O (configuration not stated) :: 4.34%
7. COCCO[C@H]1CCN(c2cc(OC)ncn2)[C@H]1Cc1ccncc1 :: -146%
8. Cc1ccsc1-c1nc(CN(C)Cc2cc[nH]n2)c(C)o1 :: 10.3%
9. CC(NCc1cc(O)c2cccc(F)c2n1)c1ccc(S(C)(=O)=O)cc1 (configuration not stated) :: 4.03%
10. O=C1OCC(CO)N1Cc1cccc(Cl)c1F (configuration not stated) :: 0.739%
11. Cc1nc(CN2C(=O)CC[C@@H]3[C@H]2CCN3C(=O)c2ccno2)cs1 :: -82.7%
12. Cn1cc(CN2CCCN(C(=O)c3sccc3C#N)CC2)cn1 :: -1.37%
13. Cc1nn(C)c2cnn(CCCNS(=O)(=O)Cc3ccccc3)c12 :: 0.999%
14. COc1cccc(CN2CCCCCC2c2cccs2)c1O (configuration not stated) :: 11.4%
15. O=C(CCc1ccccc1)N1CCn2cc(Cn3cncn3)nc2C1 :: -0.881%
16. CCC(NC(=O)c1cc(CC(C)C)nn1C)c1cccc(C)n1 (configuration not stated) :: -116%
17. CN1CCN(Cc2nc3ccccc3[nH]2)[C@H]2CS(=O)(=O)C[C@H]21 :: 20.5%
18. C[C@@H]1CN(C(=O)CCN2CCCC2)CC[C@@]1(O)C1CCC1 :: -7.97%
19. COCC(=O)N1CCCCC1c1nc(C)c2c(n1)N(C1CC1)C(=O)CC2 (configuration not stated) :: -1%
20. COCCN1C(=O)CCC12CCC(NCc1nccs1)CC2 (configuration not stated) :: 7.01%
21. Cc1cnc2c(c1NCc1cccs1)c(=O)n(C)c(=O)n2C :: 0.319%
22. Cc1cccc(C(=O)NCc2ccc(S(N)(=O)=O)cc2)n1 :: -4.25%
23. CCn1cc(NC(=O)NCC(c2ccsc2)N(C)C)cn1 (configuration not stated) :: -8.01%
24. CC(C)C(=O)N1CCC(C)(c2cc[nH]n2)CC1 :: 1.96%
25. Cc1nc(CNCC2Cn3nncc3CO2)cs1 (configuration not stated) :: -93.2%
26. CC(=O)N1CCC(c2nc3ccc(C)cn3n2)CC1 :: 0.819%
27. CC(Sc1n[nH]c(-c2ccc3c(c2)CCC3)n1)C(N)=O (configuration not stated) :: -0.665%
28. Cn1ccc2cc(C(=O)N3CC[C@@]4(O)CCCC[C@H]4C3)ccc21 :: -46.8%
29. O=C(NS(=O)(=O)c1ccc(C2CCCCC2)cc1)C1COCCO1 (configuration not stated) :: 7.02%
30. CCn1ncc(C(=O)NCc2ccc(C)c(OC)c2)c1C(F)(F)F :: 10.2%
31. Cc1cc(N(C)Cc2ncc[nH]2)nc(-c2cccnc2)n1 :: 4.37%
32. CN(C)CCCn1cnc2cc(NC(=O)c3n[nH]c4c3CCC4)ccc21 :: -5.3%
33. COc1cc2nc(NCc3ccc(C)nc3)nc(N)c2cc1OC :: 2.94%
34. CCc1cnc(CN(C)C2CCN(CCCS(=O)(=O)NC)C2)o1 (configuration not stated) :: 7.82%
35. COC(=O)c1ccc(N2CCN(C(=O)c3cccnc3)C(C)C2)cc1 (configuration not stated) :: 4.54%
36. CCC(=O)N1CCC2(CC1)C(=O)N(C)CCN2Cc1csc(C)n1 :: 5.59%
37. c1cnnc(N2CCCC(NCc3ccc(-n4ccnc4)cc3)C2)c1 (configuration not stated) :: 0.866%
38. Cc1ccc(C(=O)N2CCC3(CC2)NC(=O)CC3c2ccccc2)cn1 (configuration not stated) :: -2.47%
39. O=C(Cc1cccnc1)N1CCCC2(CCN(C3CCOCC3)C2)C1 (configuration not stated) :: -1.45%
40. Cc1nn(C)c(Cl)c1C1CCCN1C(=O)c1cnc[nH]1 (configuration not stated) :: -2.11%
41. Fc1cnc(N2CCOCC3(CCCN(c4cnccn4)C3)C2)nc1 (configuration not stated) :: 10.6%
42. Cc1cc(OCC(=O)NCc2ccc(F)cc2)nnc1C :: -9.27%
43. O=C(c1c[nH]cn1)N1CCC(F)(F)C2(CCN(c3ncccn3)C2)C1 (configuration not stated) :: 9.76%
44. COc1ncccc1CN1CC[C@H]2O[C@@H](c3nnc(C)o3)CC[C@H]21 :: 9.6%
45. CC(C)NC(=O)N1CCCn2cnc(CN3CCCC3=O)c2C1 :: 17.4%
46. Cc1ccc2c(c1)C(NCc1nccn1Cc1ccccc1)CCCO2 (configuration not stated) :: 1.26%
47. CCNc1nnc(SCc2nnc(C(C)(C)C)o2)s1 :: -1.79%

---

ASSAY REMARKS: Toxicity liver stage against HepG2, at 10uM
Assay type: cell-based
Parameters: test concentration 10 uM, cell line HepG2-A16-CD81EGFP
RUN PARAMETERS: human, HepG2-A16-CD81EGFP cells; read-out: INHIBITION
Recorded cytotoxicity at 10 µM by entry
MEASUREMENT LABEL: cytotoxicity at 10 µM (%)

1) CC1(C)CC(=O)N(CC(=O)Nc2ccon2)c2ccccc21 :: -3.43
2) O=C1C(NCc2cccc(O)c2)CCN1Cc1ccccc1 (stereo unspecified) :: -0.539
3) Cc1noc(C)c1-c1cncc(C2CCCN2Cc2nccs2)n1 (stereo unspecified) :: -14.2
4) Cc1ccccc1N1CCN(C(=O)CC(C)C)CC1 :: -1.26
5) Cc1cc(C(F)(F)F)nc(C2COCCN2S(C)(=O)=O)n1 (stereo unspecified) :: -2.6
6) CCC(CO)N(Cc1ccccn1)C(=O)c1ccc2c(c1)CCO2 (stereo unspecified) :: -14.2

---

ASSAY REMARKS: Toxicity liver stage against HepG2, at 10uM
Assay type: cell-based
Design: test concentration 10 uM, cell line HepG2-A16-CD81EGFP
RUN PARAMETERS: human, HepG2-A16-CD81EGFP cells; read-out: INHIBITION
MEASUREMENT LABEL: cytotoxicity at 10 µM (%)

1) Cn1cc(S(=O)(=O)Nc2ccc3[nH]c(C4CCC4)nc3c2)cn1 :: -8.36
2) Cc1noc(C2CCCN(C(=O)c3cc(Cl)c(Cl)n3C)C2)n1 (stereo not given) :: 13.6
3) CCNc1ccnc(N2Cc3cnn(Cc4ccc(F)cc4)c3C2)n1 :: 10
4) O=C(NCCC(=O)N1CCCC1)c1nn(-c2ccccc2F)cc1O :: -13.9
5) COCCOC1CCN(C(C(=O)O)c2ccc(F)c(Cl)c2)CC1 (stereo not given) :: 9.84
6) CC(=O)N(Cc1ncc(C)o1)C1CCN(CCc2cccs2)C1 (stereo not given) :: -8.85
7) CCOc1ccc(C(=O)N2CCCC2c2cnn(C)c2)cn1 (stereo not given) :: -3.71
8) CC(NC(=O)CCc1cccs1)c1nnc2n1CCC2 (stereo not given) :: -4.22
9) COc1ccc(N2CCN(C(=O)OC(C)(C)C)C(C(=O)O)C2)cc1 (stereo not given) :: -0.318
10) NC(=O)c1cccc(CCNC(=O)N2CCCC2)c1 :: -3.88
11) O=C(NCCN1CCc2ccccc2C1)c1scnc1Cl :: -4.84
12) CCOc1nnc(CN2CCN(CCOC)C(C)C2)s1 (stereo not given) :: -11.1
13) CC(C)c1cc(=O)[nH]c(-c2ccccc2CN2CCC(C)(C)C2)n1 :: -42
14) O=C(Nc1ccccn1)C1=NN(c2ccccc2)C(=O)CN1 :: -1.53
15) Cc1noc(CCCC(=O)NCCc2cc3ccccc3[nH]2)n1 :: 1.38
16) O=S(=O)(CCNCc1ccc(Cl)cc1)N1CCOCC1 :: 4.68
17) COc1ccc(CNC[C@H]2COCc3nc4cccnc4n32)cn1 :: -0.772
18) O=C(c1cnco1)N1CCC(Cc2ccc3ncccc3c2)CC1 :: 7.22
19) CN1CCN(Cc2ccccc2CNC(=O)c2cc(Cl)ccc2F)CC1 :: 9.61
20) O=C1COC2(CCN(Cc3nccs3)CC2)CN1CC1CC1 :: 4.38
21) Cc1ccc(N2CCCC(NC(=O)CCc3ccccn3)C2=O)cc1 (stereo not given) :: -2.16
22) CC(=O)N1CCC(c2cccc(NC3CCOCC3)n2)CC1 :: 13.3
23) CC(C)n1nnnc1-c1ccc(NC(=O)CC(F)(F)F)cc1F :: 6.62
24) COCc1nnc(C(=O)N(C)Cc2cnc3ccccn23)o1 :: 1.69
25) Cc1nc(Nc2cnccn2)cc(C2CN(C(C)C)C2)n1 :: -27.1
